Tested on: A375 cells
Experiment: A-to-I PepTile screen: fitness effect upon IFNα (PepTile abundance untreated vs treated)
Assay type: cell-based, human
Conditions: IFNα 6000 U/ml for 48 hours vs untreated
METRIC: Fitness Score IFNα
When you answer, write just the number.

The sequence identified as MLPERLEVNGRESEEENLNKSEISQVFEIALKRNLPVNFEV [STAU1_42] registered its Fitness Score IFNα at 0.46

----------
Tested on: A375-WT
Experiment: Pan-Cancer PepTile/PiTile fitness screen (lentiviral 40-mer peptide library, NGS abundance)
Type: cell-based, human
Set-up: key: enrichment of each peptide's NGS abundance, early day vs Day 14
Conditions: Pan-Cancer library, peptide enrichment day 14 vs day 0
Method: FIGS. 13A-13D show Pan-Cancer PiTile Workflow. (A) The Pan-Cancer peptide library is composed of 1081 proteins tiled into 40-mer peptides at every 6 amino acids of the parental protein. […] Genomic DNA was then harvested at Day2 and Day 14 post-transduction and cell populations abundance expressing the different peptides were quantified using Next-Generation Sequencing (NGS). Peptide fitness score was then calculated by the abundance of each peptide at Day2 versus Day 14. […]
METRIC: A375-WT Fitness Score

FLCN_43: 40-mer peptide tile of FLCN, AA start position 252, Longin domain (ACLHTSFAWLLKACGSRLTEKLLEGAPTEDTLVQMEKLAD; UniProt Q8NFG4 252-291, looked up, fragment)    −1.76

Now look at this entry.
The substance identified as PIK3CA_38: 40-mer peptide tile of PIK3CA, AA start position 222, RBD (AEAIRKKTRSMLLSSEQLKLCVLEYQGKYILKVCGCDEYF; UniProt P42336 222-261, looked up, fragment) registered its A375-WT Fitness Score at −2.72

----------
System: A375-WT
Test: Pan-Cancer PepTile/PiTile fitness screen (lentiviral 40-mer peptide library, NGS abundance)
Format: cell-based, human
Design: key: enrichment of each peptide's NGS abundance, early day vs Day 14
Conditions: Pan-Cancer library, peptide enrichment day 14 vs day 0
Measured A375-WT Fitness Score accompanies every entry in the list below.
When you answer, write just the number.

These solved cases illustrate the format of a correct answer.
RAF1_14: 40-mer peptide tile of RAF1, AA start position 78, RBD (LHDCLMKALKVRGLQPECCAVFRLLHEHKGKKARLDWNTD; UniProt P04049 78-117, looked up, fragment)    −1.79
ARID2_13: 40-mer peptide tile of ARID2, AA start position 72, ARID domain (IVEEFNFPRSCSNAAFALKQYYLRYLEKYEKVHHFGEDDD; UniProt Q68CP9 72-111, looked up, fragment)    −2.41

Now look at this entry.
The substance identified as KIT_84: 40-mer peptide tile of KIT, AA start position 498, Transmembrane domain (GKTSAYFNFAFKGNNKEQIHPHTLFTPLLIGFVIVAGMMC; UniProt P10721 498-537, looked up, fragment) registered its A375-WT Fitness Score at −3.23

----------
Test system: A375 cells
Assay: A-to-I PepTile screen: fitness effect upon IFNα (PepTile abundance untreated vs treated)
Format: cell-based, human
Settings: IFNα 6000 U/ml for 48 hours vs untreated
Measured Fitness Score IFNα accompanies every entry in the list below.
When you answer, write just the number.

These solved cases illustrate the format of a correct answer.
MQPQTTINKEQFSKRKNDTLDPELFVECTECGRKMHQICVL [EP300_306]    -0.25
MQVTISVTSPLMREDPSTDPGVEEPQADAGDVLSPKKCLES [ZFR2_183]    -0.70

# lookup: MESTIVEPKQNENRLSDTKPNDNKQNNGRSETTKSRPETPK [NIPBL_167] on A375 cells, Fitness Score IFNα = 1.11

# lookup: MIIYDEYMMDTVISLLTGLSDSQVRAFRHTSTLAAMKLMTA [STAG1_49] on A375 cells, Fitness Score IFNα = 0.55
